Origin of the recorded values: ChEMBL document CHEMBL4819005

System: MKN-45
Run description: cells
Condition context: Homo sapiens, MKN-45, 24 h
Description: Antiproliferative activity against human MKN-45 cells assessed assessed as inhibition of VEGF-induced cell proliferation measured after 24 hrs by CCK8 assay
Listing: IC50 of selected compounds

{"Compound structure": "O=C1Nc2ccccc2/C1=C/c1ccc(-c2cn(-c3ccc(Cl)c(C(F)(F)F)c3)nn2)cc1", "Result units": "µM", "IC50": 8.89}
{"Compound structure": "O=C1Nc2ccc(F)cc2C1=Cc1ccc(-c2cn(-c3ccccc3)nn2)cc1", "Result units": "µM", "IC50": 11.1}
{"Compound structure": "Cc1ccccc1-n1cc(-c2ccc(C=C3C(=O)Nc4ccc(F)cc43)cc2)nn1", "Result units": "µM", "IC50": 7.21}

====

Tested on: HUVEC
Run description: cells
Condition context: Homo sapiens, 24 h
Description: Cytotoxicity against HUVEC cells assessed as inhibition of cell proliferation in presence of VEGF measured after 24 hrs by CCK8 assay
pIC50: −log10 of the molar value.
Readout type: pIC50

{"Compound": "Cc1cccc(-n2cc(-c3ccc(/C=C4\\C(=O)Nc5ccccc54)cc3)nn2)c1", "Assay target": "HUVEC", "Relation operator": "=", "Observed value": 4.86}
{"Compound": "CCN(CC)CCNC(=O)c1c(C)[nH]c(/C=C2\\C(=O)Nc3ccc(F)cc32)c1C [SUNITINIB]", "Assay target": "HUVEC", "Relation operator": "=", "Observed value": 5.20}
{"Compound": "O=C1Nc2ccc(F)cc2/C1=C/c1ccc(-c2cn(-c3ccccc3Cl)nn2)cc1", "Assay target": "HUVEC", "Relation operator": "=", "Observed value": 4.74}
{"Compound": "O=C1Nc2ccccc2/C1=C/c1ccc(-c2cn(-c3ccccc3F)nn2)cc1", "Assay target": "HUVEC", "Relation operator": "=", "Observed value": 4.72}
{"Compound": "O=C1Nc2ccc(F)cc2/C1=C/c1ccc(-c2cn(-c3ccccc3F)nn2)cc1", "Assay target": "HUVEC", "Relation operator": "=", "Observed value": 4.84}
{"Compound": "O=C1Nc2ccccc2/C1=C/c1ccc(-c2cn(-c3ccc(Cl)c(C(F)(F)F)c3)nn2)cc1", "Assay target": "HUVEC", "Relation operator": "<", "Observed value": 4.70}
{"Compound": "Cc1ccc(-n2cc(-c3ccc(/C=C4\\C(=O)Nc5ccc(F)cc54)cc3)nn2)cc1", "Assay target": "HUVEC", "Relation operator": "=", "Observed value": 4.86}
{"Compound": "O=C1Nc2ccc(F)cc2/C1=C/c1ccc(-c2cn(-c3cccc(F)c3)nn2)cc1", "Assay target": "HUVEC", "Relation operator": "=", "Observed value": 4.76}
{"Compound": "O=C1Nc2ccc(F)cc2/C1=C/c1ccc(-c2cn(-c3ccc(F)cc3)nn2)cc1", "Assay target": "HUVEC", "Relation operator": "<", "Observed value": 4.70}
{"Compound": "O=C1Nc2ccccc2/C1=C/c1ccc(-c2cn(-c3ccc(Cl)cc3)nn2)cc1", "Assay target": "HUVEC", "Relation operator": "=", "Observed value": 4.74}
{"Compound": "N#Cc1ccc(-n2cc(-c3ccc(C=C4C(=O)Nc5ccccc54)cc3)nn2)cc1", "Assay target": "HUVEC", "Relation operator": "<", "Observed value": 4.70}
{"Compound": "Cc1ccc(-n2cc(-c3ccc(/C=C4\\C(=O)Nc5ccccc54)cc3)nn2)cc1", "Assay target": "HUVEC", "Relation operator": "=", "Observed value": 5.10}
{"Compound": "O=C1Nc2ccc(F)cc2/C1=C/c1ccc(-c2cn(-c3cccc(Cl)c3)nn2)cc1", "Assay target": "HUVEC", "Relation operator": "=", "Observed value": 4.71}
{"Compound": "O=C1Nc2ccccc2/C1=C/c1ccc(-c2cn(-c3ccc(F)cc3)nn2)cc1", "Assay target": "HUVEC", "Relation operator": "=", "Observed value": 4.83}

====

Tested on: MKN-45
Run description: cells
Condition context: Homo sapiens, MKN-45, 24 h

{"Compound structure": "N#Cc1cccc(-n2cc(-c3ccc(/C=C4\\C(=O)Nc5ccccc54)cc3)nn2)c1", "IC50": "> 20 µM"}
{"Compound structure": "N#Cc1cccc(-n2cc(-c3ccc(/C=C4\\C(=O)Nc5ccc(F)cc54)cc3)nn2)c1", "IC50": "> 20 µM"}
{"Compound structure": "O=C1Nc2ccc(F)cc2/C1=C/c1ccc(-c2cn(-c3ccc(Cl)c(C(F)(F)F)c3)nn2)cc1", "IC50": "> 20 µM"}

====

Tested on: MKN-45
Run description: cells
Condition context: Homo sapiens, MKN-45, 24 h

{"Compound structure": "O=C1Nc2ccccc2/C1=C/c1ccc(-c2cn(-c3ccccc3Cl)nn2)cc1", "Assay target": "MKN-45", "IC50": "> 20 µM"}
{"Compound structure": "O=C1Nc2ccc(F)cc2/C1=C/c1ccc(-c2cn(-c3ccc(F)cc3)nn2)cc1", "Assay target": "MKN-45", "IC50": "> 20 µM"}
{"Compound structure": "O=C1Nc2ccccc2/C1=C/c1ccc(-c2cn(-c3cccc(F)c3)nn2)cc1", "Assay target": "MKN-45", "IC50": "> 20 µM"}
